Numbers sourced from patent US20180298070A1.

Molecular target: T1, human GIPR (human), P48546
T1 chain: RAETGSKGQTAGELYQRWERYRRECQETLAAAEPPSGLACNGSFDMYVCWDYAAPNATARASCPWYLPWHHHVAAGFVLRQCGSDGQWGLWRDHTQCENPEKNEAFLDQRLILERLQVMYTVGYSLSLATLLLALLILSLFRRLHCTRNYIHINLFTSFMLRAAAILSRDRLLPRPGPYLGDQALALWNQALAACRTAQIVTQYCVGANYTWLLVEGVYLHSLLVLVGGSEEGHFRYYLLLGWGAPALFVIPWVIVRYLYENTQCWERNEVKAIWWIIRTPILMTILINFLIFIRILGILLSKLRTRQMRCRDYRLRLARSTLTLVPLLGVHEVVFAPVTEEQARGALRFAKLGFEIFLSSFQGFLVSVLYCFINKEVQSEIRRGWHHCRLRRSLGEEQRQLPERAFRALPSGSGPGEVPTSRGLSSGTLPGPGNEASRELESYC
Non-standard residues stand in square brackets, D forms with d. Groups on a side chain read outwards from the residue. Primed or numbered codes have the meaning given here. No end group written: not given here. *: point of attachment. NMeY = CN[C@@H](Cc1ccc(O)cc1)C(=O)O; Stearoyl = CCCCCCCCCCCCCCCCCC(=O)*; αMeF = C[C@](N)(Cc1ccccc1)C(=O)O; Lauroyl = CCCCCCCCCCCC(=O)*; Decanoyl = CCCCCCCCCC(=O)*; dIva = CC[C@@](C)(N)C(=O)O; Iva = CC[C@](C)(N)C(=O)O; PEG2′ = not defined here; Dda = not defined here; Aib = CC(C)(N)C(=O)O
Entries and their Agonist activity (EC50, M)
Answer in M, number only, no unit symbol.

-- ask Would you mind telling me what Agonist activity (EC50, M) value was observed for Ac-Y[Aib]EGTFISDYSI[dIva]LDRIAQ[Aib]NFVNW[Iva]LAQRPSSGAPPPSR (ends and bridges not checked) [Compound 152] ?
-- reply 2.8e-12

-- ask Any idea what its Agonist activity (EC50, M) is? The binder is Y[Aib]EGTVVSLYSK([Gly-Gly-Gly-Gly-Stearoyl])[Aib]LDRQAQ[Aib]EFVK(Ac)WLLAQR (ends and bridges not checked) [Compound 261]
-- reply 5.5e-11

---
-- ask Entry Y[Aib]EGTFISDYSK([PEG(2)-Lauroyl])ALDRIHQQD[αMeF]VNWLLAQRPSSGAPPPS (ends and bridges not checked) [Compound 208] has what Agonist activity (EC50, M)?
-- reply 6.1e-12

-- ask Field request: Agonist activity (EC50, M) | item: Y[Aib]EGTVVSLYSK([Gly-Gly-Gly-Gly-Stearoyl])[Aib]LDRQAQ[Aib]EFVRWLLAQR (ends and bridges not checked) [Compound 258]
-- reply 9.2e-11

-- ask What value of Agonist activity (EC50, M) has been reported for the following binder? Y[Aib]EGTFISDYSK([PEG2′-Dda])ALDRIAQQDFVNWLLAQRPSSGAPPPSR (ends and bridges not checked) [Compound 188]
-- reply 3e-12

-- ask Fill blank: measured Agonist activity (EC50, M) of the binder [NMeY][Aib]EGTFISDYSIALDR[Aib]AQ[Aib]NFVNW[Iva]LAQRPSSGAPPPSR (ends and bridges not checked) [Compound 84] is ____.
-- reply 1.2e-12

-- ask // Agonist activity (EC50, M) lookup, key: Y[Aib]EGTFISDYSK([PEG2′-Decanoyl])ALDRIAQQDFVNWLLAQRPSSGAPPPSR (ends and bridges not checked) [Compound 182]
-- reply 3.3e-12

-- ask What does the data say about its Agonist activity (EC50, M)? Entry: Y[Aib]EGTVVSLYSK(Pal)[Aib]LDKQAQ[Aib]EFVKWLLAQK (ends and bridges not checked) [Compound 159]
-- reply 7.8e-10

-- ask Quick one: Agonist activity (EC50, M) of Me-Y[Aib]EGTFISDYSIALDRIAQQN[αMeF]VNWLLAQRPSSGAPPPSR (not fully specified (residue 1, C-terminus); ends and bridges not checked) [Compound 134] ?
-- reply 2.3e-12
